target: CD33xMIC7; experiment: SPR affinity of VHH clone (antibody fusion) to PROTACs; conditions: CD33xMIC7 immobilized, 25° C., read-out: KD [M] for antibody binding to PROTAC
Measurement name: Kd (M)
# value in M; strip the unit string

// solved cases for Kd follow
| Compound | Measurement name | Numeric value |
| --- | --- | --- |
| CC(=O)N[C@H](C(=O)N1C[C@H](O)C[C@H]1C(=O)NCc1ccc(-c2scnc2C)cc1)C(C)(C)SCCCCCCNC(=O)C[C@@H]1N=C(c2ccc(Cl)cc2)c2c(sc(C)c2C)-n2c(C)nnc21 [AT1] | Kd | 2.1e-09 |
| Cc1ncsc1-c1ccc(CNC(=O)[C@@H]2C[C@@H](O)CN2C(=O)[C@@H](NC(=O)COCC(C)(COCCOCCOCCNC(=O)C[C@@H]2N=C(c3ccc(Cl)cc3)c3c(sc(C)c3C)-n3c(C)nnc32)COCCOCCOCCNC(=O)C[C@@H]2N=C(c3ccc(Cl)cc3)c3c(sc(C)c3C)-n3c(C)nnc32)C(C)(C)C)cc1 [SIM1] | Kd | 3.8e-09 |
| Cc1ncsc1-c1ccc([C@H](C)NC(=O)[C@@H]2C[C@@H](O)CN2C(=O)[C@@H](NC(=O)COCCCOCCNC(=O)C[C@@H]2N=C(c3ccc(Cl)cc3)c3c(sc(C)c3C)-n3c(C)nnc32)C(C)(C)C)cc1 [ARV771] | Kd | 4.2e-09 |

Kindly review the next compound as well.
Exercise: Fill in Kd for record Cc1nc(Nc2ncc(C(=O)Nc3c(C)cccc3Cl)s2)cc(N2CCN(C(=O)CCCCCCC(=O)N[C@H](C(=O)N3C[C@H](O)C[C@H]3C(=O)NCc3ccc(-c4scnc4C)cc3)C(C)(C)C)CC2)n1 [SIAIS178]
Solution: 8.3e-09

---

target: CD33xMIC13; assay: SPR affinity of VHH clone (antibody fusion) to PROTACs; details: CD33xMIC13 immobilized, 25° C., read-out: KD [M] for antibody binding to PROTAC
Measurement name: Kd (M)
# value in M; strip the unit string

// solved cases for Kd follow
| Molecule | Kd, M |
| --- | --- |
| Cc1ncsc1-c1ccc([C@H](C)NC(=O)[C@@H]2C[C@@H](O)CN2C(=O)[C@@H](NC(=O)COCCCOCCNC(=O)C[C@@H]2N=C(c3ccc(Cl)cc3)c3c(sc(C)c3C)-n3c(C)nnc32)C(C)(C)C)cc1 [ARV771] | 1.3e-08 |
| Cc1ncsc1-c1ccc(CNC(=O)[C@@H]2C[C@@H](O)CN2C(=O)[C@@H](NC(=O)CCCCCCCCCCNC(=O)c2cc3c(cc2CS(C)(=O)=O)-c2cn(C)c(=O)c4[nH]cc(c24)CN3c2ncc(F)cc2F)C(C)(C)C)cc1 [GNE987] | 2.3e-08 |
| Cc1ncsc1-c1ccc(CNC(=O)[C@@H]2C[C@@H](O)CN2C(=O)[C@@H](NC(=O)C2(F)CC2)C(C)(C)C)c(OCCOc2ccc(CN3CCN(c4cc(-c5ccccc5O)nnc4N)CC3)cc2)c1 [ACBI1] | 9.3e-05 |

Kindly review the next molecule as well.
Exercise: Fill in Kd for record CC(=O)N[C@H](C(=O)N1C[C@H](O)C[C@H]1C(=O)NCc1ccc(-c2scnc2C)cc1)C(C)(C)SCCCCCCNC(=O)C[C@@H]1N=C(c2ccc(Cl)cc2)c2c(sc(C)c2C)-n2c(C)nnc21 [AT1]
Solution: 1.7e-09

Data credit: patent US20250312468A1
